FYI, the data here is from ChEMBL document CHEMBL4837261.

The following compounds are listed with their measured MIC values.
- System: Staphylococcus aureus
- Assay Protocol: Antibacterial activity against Staphylococcus aureus 3527 by CLSI method
- Type: functional

Solved cases below.
Compound	MIC
COc1ccc2ncc(F)c(C(O)C[C@H]3OC[C@H](NCc4ccc5c(c4)OCCO5)CO3)c2n1 (mixture of isomers)	≤ 0.25 µg/mL
COc1ccc2ncc(F)c(C[C@H](O)[C@H]3OC[C@H](NCc4cc5c(cn4)OCS5)CO3)c2n1	0.125 µg/mL
COc1ccc2ncc(F)c(C[C@H](O)[C@H]3OC[C@H](NCc4cc5c(cn4)OCCO5)CO3)c2c1	0.5 µg/mL
COc1ccc2ncc(F)c(C[C@H](O)[C@H]3OC[C@H](NCc4cc5c(cn4)OCCO5)CO3)c2n1	0.25 µg/mL

Please look up its MIC: `COc1ccc2ncc(F)c(C[C@H](O)[C@H]3OC[C@H](NCc4ccc(Cl)c(Cl)c4)CO3)c2n1`
0.125 µg/mL
